- Test system: TESK1
- applied.conditions: concentration: 1 μM, replicates: in singlicate; n = 1;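 note: KINOMEscan kinase panel screen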
result.type: %Inh (%)
Reply with just the number (in %).

A selection of reference data follows.
COc1ccc(S(=O)(=O)NC2CCN(c3cc(C)nc(Nc4cccc(C#N)c4)n3)CC2)cc1.O=C(O)C(F)(F)F | 5
[2H]C([2H])(c1cccc(C(F)(F)F)c1C)n1ccn2c(=O)nc(N3CCOCC3)cc12 | 26

Given the compound `COc1ccc(COc2cc(-n3cnc4ccccc43)sc2C(N)=O)cc1` , what is its reported %Inh?
20

Next compound: COc1cc(Nc2nccc(N3CCC(NC(=O)c4cccc(NC(C)=O)c4)C3)n2)cc(OC)c1OC (centres unmarked)
15

Same question for `CC(C)(C)n1cnc2c(N)ncnc21` please.
0

Do the same for NCC(NC(=O)c1cc(-c2cn[nH]c2)c(-c2ccnc3[nH]ccc23)s1)c1ccccc1.O=C(O)C(F)(F)F.O=C(O)C(F)(F)F (centres unmarked) please
18

Please answer likewise for `O=C(NCCNc1ccnc(Nc2ccc(F)cc2)n1)Nc1ccccc1F`
0

----------
Overview of reported %Inh across a group of compounds:
- Tested on: PRKG1
- applied.conditions: concentration: 1 μM, replicates: in singlicate; n = 1
Kindly provide the numeric value in % only, without the unit symbol.

A selection of reference data follows.
CC(C)Oc1ccc2c(-c3ccnc(Nc4ccc(N5CCN(C)CC5)cc4)n3)cnn2n1 [GW696155] | 0
Cc1cccc(-c2nc(Nc3ccc4ncsc4c3)c3ccccc3n2)n1 [GW867588] | 0
O=C(Nc1cccc(-c2nn3ncccc3c2-c2ccnc(Nc3cccc(C(F)(F)F)c3)n2)c1)c1c(F)cccc1F [GSK299495] | 0
O=C(c1ccc(-c2cc(-c3c[nH]nc3-c3ccccn3)ccn2)cc1)N1CCOCC1 [GW812171] | 10

Form field - read-out: %Inh; system: PRKG1; submitted item: c1ccc(-c2n[nH]cc2-c2ccnc3ccccc23)nc1 [GW271431]
0

----------
- System: MYO3A
- applied.conditions: concentration: 1 μM, replicates: in singlicate; n = 1
Please use y for %Inh under 3% and n for everything else, ties included.

Before answering, review these 3 worked examples.
COc1cc(Nc2nccc(N3CCC(NC(=O)c4cccc(NC(C)=O)c4)C3)n2)cc(OC)c1OC (stereo not drawn) [GSK1379754] | n
COc1ccc(S(=O)(=O)NC2CCN(c3cc(C)nc(Nc4cccc(C#N)c4)n3)CC2)cc1.O=C(O)C(F)(F)F [GSK1653539] | n
Cc1cccc(-c2nc(-c3ccc(S(C)(=O)=O)cc3)sc2-c2ccncc2)c1 | n

Is it true that %Inh reported for COc1ccc(Nc2nccc(N3CCC(NC(=O)Nc4cc(C)ccc4C)C3)n2)cc1 (stereo not drawn) [GSK1379741] is less than 3%?
y

Similarly, Cc1cn2c(=O)cc(N3CCOCC3)nc2n1Cc1cccc(Cl)c1Cl [GSK2334006] ?
y

Next entry: Cc1nnc(-c2ccc(C)c(-c3ccc(C(=O)Nc4ccc(NS(C)(=O)=O)cc4)cc3)c2)o1 [GW702865]
n

----------
- Test system: ACVR1
- applied.conditions: concentration: 1 μM, replicates: in singlicate; n = 1
Listed below: %Inh values for each entry.
# value in %; strip the unit string

The examples below pair each entry with its known result.
Cc1nnc(-c2ccc(C)c(-c3ccc(C(=O)Nc4ccc(NS(C)(=O)=O)cc4)cc3)c2)o1 [GW702865] | 0
COc1cc2c(cc1OCCN1CCN(C)CC1)ncc1c3ccc(C#N)cc3[nH]c21 | 0
O=c1cc(N2CCOCC2)nc2n(Cc3cccc(Cl)c3Cl)c(C3CC3)nn12 [GSK2358994] | 0
CC(C)Oc1ccc2c(-c3ccnc(Nc4ccc(N5CCN(C)CC5)cc4)n3)cnn2n1 [GW696155] | 69
O=C(Nc1cccc(-c2nn3ncccc3c2-c2ccnc(Nc3cccc(C(F)(F)F)c3)n2)c1)c1c(F)cccc1F [GSK299495] | 9

Below: the item to evaluate.
What is its %Inh for ACVR1? Entry: Cc1c(Cn2c(C)nn3c(=O)cc(N4CCOC(C)C4)nc23)cccc1C(F)(F)F (centres unmarked) [GSK2344444]
0

----------
molecules and their reported %Inh
- Tested on: LCK
- applied.conditions: concentration: 1 μM, replicates: in singlicate; n = 1
Please append the unit to your numeric answer.

CC(C)(CN)c1nc(-c2ccc(Cl)c(O)c2)c(-c2ccncc2)[nH]1.O=C(O)C(F)(F)F | 99.2%
COc1cc(Nc2nccc(N3CCC(NC(=O)c4cccc(NC(C)=O)c4)C3)n2)cc(OC)c1OC (stereo not drawn) | 30%
CCn1cnc2c(N)ncnc21 | 5%
O=C(NCCCN1CCOCC1)c1cccc(Nc2nccc(Nc3ccc(Oc4ccccc4)cc3)n2)c1 | 99.3%
O=C(Nc1cccc(-c2nn3ncccc3c2-c2ccnc(Nc3cccc(C(F)(F)F)c3)n2)c1)c1c(F)cccc1F | 98.2%

Recorded %Inh for `O=c1cc(N2CCOCC2)nc2n(Cc3cccc4ccccc34)ccn12` , please?
2%

Ok, now `Fc1ccc(-c2nn3c(OCC(F)(F)F)cccc3c2-c2ccncc2)cc1`
7%

Field entry: `COc1cc2ncn(-c3cc(OCc4sccc4Cl)c(C(N)=O)s3)c2cc1OC`
34%

Ok, now Cc1nnc(-c2ccc3ncc(-c4ccc(S(C)=O)cc4)n3c2)o1 (stereo not drawn)
0%

Ok, now `COc1cc2c(cc1OC[C@@H](O)CO)ncc1c3ccc(C#N)cc3[nH]c21`
0%

What do you get for `O=c1cc(N2CCOCC2)nc2n(Cc3cccc(F)c3)ccn12` ?
23%

`Cl.Nc1ncnc2occ(-c3ccc(NC(=O)Nc4cc(C(F)(F)F)ccc4F)cc3)c12` , same question.
88%

Do the same for `COc1ccc(COc2cc(-n3cnc4ccccc43)sc2C(N)=O)cc1` please
16%

For `Cl.Oc1cccc(Nc2ccnc3cc(-c4ccncc4)ccc23)c1` then?
98.7%

What about this molecule? `O=C(c1ccc(-c2cc(-c3c[nH]nc3-c3ccccn3)ccn2)cc1)N1CCOCC1`
0%

----------
- Tested on: PAK3
- applied.conditions: concentration: 1 μM, replicates: in singlicate; n = 1
Assign labels as follows, please: rule met for %Inh below 20%; rule not met for %Inh equal to or exceeding 20%.

Reference set (5 entries):
O=c1cc(N2CCOCC2)nc2n(Cc3cccc(Cl)c3Cl)c(C3CC3)nn12 | rule met
Cc1cccc(Cn2ccn3c(=O)cc(N4CCOCC4)nc23)c1 | rule met
Cc1c2ccc(N(C)c3ccnc(Nc4cccc(S(N)(=O)=O)c4)n3)cc2nn1Cc1ccccc1.Cl.Cl | rule not met
O=C(NCCNc1ccnc(Nc2ccc(F)cc2)n1)Nc1ccccc1F | rule met
Cl.Oc1cccc(Nc2ccnc3cc(-c4ccncc4)ccc23)c1 | rule not met

Field: below-cutoff. Rule: recorded %Inh strictly less than 20%. Subject: `Cc1cn2c(=O)cc(N3CCOCC3)nc2n1Cc1cccc(Cl)c1Cl`
rule met

Again, but for `c1ccc(-c2cc(-c3c[nH]nc3-c3ccccn3)ccn2)cc1`
rule met

----------
Reported %Inh values follow for various compounds
- Tested on: TESK1
- applied.conditions: concentration: 1 μM, replicates: in singlicate; n = 1
Give your result in % as a bare value.

# annotated cases, reported %Inh shown
CCn1cnc2c(N)ncnc21 [GW345098] | 4
COC(=O)Nc1nc2cc(Oc3ccc(NC(=O)Nc4cc(F)ccc4F)cc3)ccc2[nH]1.Cl [GW701424] | 73
Cl.Oc1cccc(Nc2ccnc3cc(-c4ccncc4)ccc23)c1 [GW494601] | 16
COCCNC(=O)c1ccc(-c2cc(C(=O)NC3CC3)cc(F)c2C)cc1 [GW868318] | 26

Now consider the entry below.
What %Inh value was documented for this compound, Fc1ccc(-c2nn3c(OCC(F)(F)F)cccc3c2-c2ccncc2)cc1 [GW514784] ?
13

----------
Examples of compounds with documented %Inh follow.
- System: CSK
- applied.conditions: concentration: 1 μM, replicates: in singlicate; n = 1
Kindly answer with a numeric value in %, unit omitted.

O=C(Nc1cccc(-c2nn3ncccc3c2-c2ccnc(Nc3cccc(C(F)(F)F)c3)n2)c1)c1c(F)cccc1F | 88
COc1ccc(CNC(=O)NC2CCN(c3ccnc(Nc4ccc(OC)cc4)n3)C2)cc1 (stereo not drawn) | 0
N#Cc1ccc(-c2cc(-c3c[nH]nc3-c3ccccn3)ccn2)cc1 | 0
CN1c2ccc(CNc3ccc(F)cc3)cc2-c2c(cnn2C)S1(=O)=O | 0
Cc1nnc(-c2ccc(C)c(-c3ccc(C(=O)Nc4ccc(NS(C)(=O)=O)cc4)cc3)c2)o1 | 0
Cl.Oc1cccc(Nc2ccnc3cc(-c4ccncc4)ccc23)c1 | 65

May I ask what %Inh has been recorded for `NS(=O)(=O)c1cccc(-c2ccc3ncc(N4CCOCC4)nc3c2)c1` ?
0

For `NS(=O)(=O)c1cccc(-c2ccc3nccc(-c4cccc(S(N)(=O)=O)c4)c3c2)c1` then?
0
